- Assay method text: RAM pathway blockade in budding yeast – dse1pr::URA3 reporter, 5-FOA selection, pilot screen (AID 869);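 further: 0% = DMSO wells with no growth and 100% = 10 µM 1-NA-PP1 with full growth; RAM network block rescues cells from 5-FOA so hits raise OD615 growth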
- Condition context: S. cerevisiae dse1pr::URA3 5-FOA growth, OD615, 2 d; at 10 µM; stronger effect = higher value; strain carries analog-sensitive mutant Cbk1 kinase
Assay readout: inhibition (%)
Output spec: scalar in %, unitless text.

CCN(CC)C(=O)Oc1ccc(NC(C)=O)cc1
1.06
COC(=O)c1cn(C(=O)c2ccc(Br)o2)c2ccccc12
2.23
CCOCCCNC(=O)c1ccc2c(c1)N(Cc1ccccc1)C(=O)CS2=O (centres undefined)
1.42
COCCCNC(=O)c1oc2ccc(S(=O)(=O)N(C)C3CCCCC3)cc2c1C
-0.46

Field inhibition (entry Cc1cccc(OCCNC(=O)c2ncn[nH]2)c1 ) reads 1.01

Field inhibition (entry CCc1nn(CC(=O)NCCCN2CCc3ccccc3C2)c(=O)c2cc3sccc3n12 ) reads 0.58

Field inhibition (entry O=C1c2ccccc2C(Nc2ccc(F)c(Cl)c2)N1Cc1ccco1 (centres undefined) ) reads 1.6

Field inhibition (entry O=C(Nc1cnn(Cc2ccc(Cl)cc2Cl)c1)c1noc2c1CCCC2 ) reads 0.895

Field inhibition (entry CCCc1nc(N)c(C#N)c(-c2cccnc2)c1CC ) reads 0.805

Field inhibition (entry CCC(C)NC(=O)C1c2cc(OC)c(OC)cc2C(=O)N(C)C1c1ccc(OC)cc1 (centres undefined) ) reads 0.92

Field inhibition (entry CC(=O)c1sc(NC(=O)c2ccccc2F)nc1C ) reads 0.31
